The measured values listed here are drawn from the supplement of paper PMC12338614.

Each entry below lists one item and its recorded STK11 functional score value.
B1: library; numbered along this chain (parent)
chain: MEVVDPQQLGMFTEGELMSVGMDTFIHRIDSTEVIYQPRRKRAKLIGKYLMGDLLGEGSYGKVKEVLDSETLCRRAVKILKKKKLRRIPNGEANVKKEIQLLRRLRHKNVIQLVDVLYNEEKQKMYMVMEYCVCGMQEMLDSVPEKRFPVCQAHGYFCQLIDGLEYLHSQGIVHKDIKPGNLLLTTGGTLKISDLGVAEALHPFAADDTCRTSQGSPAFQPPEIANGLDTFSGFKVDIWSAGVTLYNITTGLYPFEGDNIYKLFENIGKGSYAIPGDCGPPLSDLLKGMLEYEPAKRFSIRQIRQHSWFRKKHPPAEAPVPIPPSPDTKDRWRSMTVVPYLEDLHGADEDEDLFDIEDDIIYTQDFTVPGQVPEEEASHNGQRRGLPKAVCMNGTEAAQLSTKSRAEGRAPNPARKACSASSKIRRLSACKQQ

Variants of: B1
Experiment: STK11 functional score (HeLa growth suppression), rescaled enrichment; synonymous median = 1, nonsense median = 0 (normalised score)
Details: with HeLa; variant type: missense

# mutation_list, STK11 functional score
records = [
    ("P413I", 1.56),
    ("F354H", 1.34),
    ("Q399I", 1.05),
    ("C418L", 1.46),
    ("E357V", 1.33),
    ("Y253S", 0.394),
    ("H306L", 0.85),
    ("L286V", 1.14),
    ("L344H", 1.14),
    ("W308R", -0.166),
    ("S401F", 1.49),
    ("N119R", 1.26),
    ("P38V", 1.01),
    ("E138D", 1.1),
    ("P6C", 1.1),
    ("P369W", 1.49),
    ("Y118I", 1.32),
    ("Y166C", 0.804),
    ("D365N", 0.613),
    ("P323L", 0.92),
    ("Q364G", 0.7),
    ("K82S", 1.15),
    ("S193C", 0.963),
    ("P281V", 1.19),
    ("G227A", 0.273),
    ("V95N", 1.6),
    ("R87L", 1.18),
    ("N109M", 0.647),
    ("R409N", 1.55),
    ("D229V", 0.388),
    ("M127W", 0.627),
    ("N393R", 1.07),
    ("S334A", 0.943),
    ("G91A", 0.99),
    ("T185V", 0.913),
    ("I356S", 0.889),
    ("M136Y", -0.238),
    ("G188D", 1.43),
    ("K44G", 0.448),
    ("M289L", 0.831),
    ("N247W", 0.698),
    ("Y362M", 1.61),
    ("I260D", 1.16),
    ("V143Y", 1.52),
    ("N226H", 0.561),
    ("I88M", 0.899),
    ("L184D", -0.0783),
    ("V372R", 1.42),
    ("N266V", 0.844),
    ("L427A", 1.6),
    ("A218I", 0.926),
    ("R415S", 1.5),
    ("A76W", -0.171),
    ("C391G", 1.22),
]
